Measured pEC50 by item
Tested on: A/Parma/24/09 H1N1 virus
conditionLabel: read-out: EC50 (concentration that reduced cytopathic effect by 50%)
Where a SMILES comes first, the peptide text is derived from it. [ ]: non-standard residue; d: D form. NMeH = CN[C@@H](Cc1c[nH]cn1)C(=O)O; Gly(N-CH2CH2OH) = O=C(O)CNCCO; NMeL = CN[C@@H](CC(C)C)C(=O)O
In textbook form, pEC50 equals minus log to base ten of the concentration in mol/L.

A selection of reference data follows.
compound | recordedNumber
CC(=O)N[C@@H](CO)C(=O)N(C)[C@@H](CC(C)C)C(=O)N[C@@H](CC(=O)O)C(=O)N[C@@H](CS)C(N)=O [Peptide 4, S(N-Me)LDC] (Ac-S[NMeL]DC-NH2) | 10.07
CC(=O)N[C@@H](CO)C(=O)N[C@@H](CCCCN)C(=O)N(C)[C@@H](Cc1c[nH]cn1)C(=O)N[C@@H](CO)C(N)=O [Peptide 9, SK(N-Me)HS] (Ac-SK[NMeH]S-NH2) | 9.85

Next up:
Reported pEC50 for A/Parma/24/09 H1N1 virus, given CC(=O)N[C@@H](CO)C(=O)N[C@@H](CCCCN)C(=O)N[C@@H](Cc1c[nH]cn1)C(=O)N(CCO)CC(N)=O [Peptide 18, SKHNhS] (Ac-SKH[Gly(N-CH2CH2OH)]-NH2) ?
10.30
